GI50: recorded values
- Test system: NCI-H226
- experiment.summary: NCI tumour cell line growth inhibition, 48 h
Activity calls are given as the source filed them. Rule as the data show it: active = GI50 up to about 1.1 µM and inactive = higher.

Some solved cases for reference:
O=C1Nc2c(Cl)cc(Cl)cc2/C1=N/N=C/c1ccco1: 23 µM (inactive)
CN(C)C(=C1c2cc([N+](=O)[O-])ccc2-c2ccc([N+](=O)[O-])cc21)N(C)C: > 100 µM (inactive)
O=C1CC(c2ccc([N+](=O)[O-])cc2)C2(C(=O)NC(=S)NC2=O)C(c2ccc([N+](=O)[O-])cc2)C1 (stereo not given): 15.7 µM (inactive)
CC(=O)OCC1OC(n2c(C)cc(C)c(C#N)c2=S)C(OC(C)=O)C(OC(C)=O)C1OC(C)=O (stereo not given): > 100 µM (inactive)

Kindly review the next compound as well.
Notebook: "C=CCSSCC=C" , GI50 read as 32.1 µM (inactive)

----------
- System: UO-31
- experiment.summary: NCI tumour cell line growth inhibition, 48 h
Calls of active or inactive are those of the source. No stated cut-off is given here; in the data, active = GI50 up to about 1.1 µM and inactive = higher.
metric.name: GI50

COc1ccc(Nc2c[nH]c(=O)[nH]c2=O)cc1: > 100 µM (inactive)
CNC(=O)c1nn[nH]c1O: > 100 µM (inactive)
COc1ccc(C2=NN(c3ccccc3)C(c3cc4cc(Br)ccc4nc3Cl)C2)cc1 (stereo not drawn): > 25 µM (inactive)
NNC(=O)C(=O)N/N=C(\CCC(=O)Nc1ccc(Cl)cc1)Cc1nc2ccccc2s1: 11.9 µM (inactive)
Clc1ccccc1/C=C/c1cscn1: 88.1 µM (inactive)
N#Cc1nc(/C=C/c2nc(C#N)c(N)o2)oc1N: > 10 µM (inactive)

Notebook: "CCOC(=S)SCC(=O)O" , GI50 read as > 100 µM (inactive)

Notebook: "Fc1cc(C2=Nn3c(CNc4ccc(Cl)cc4)nnc3S/C2=C\c2ccc(-c3ccc(Cl)cc3)o2)c(Cl)cc1Cl" , GI50 read as 11.8 µM (inactive)

----------
- Test system: UACC-257
- experiment.summary: NCI tumour cell line growth inhibition, 48 h
The source made the active and inactive calls. Cut-off read from the data, not from the text of the source: active = GI50 up to about 1.1 µM and inactive = higher.
metric.name: GI50

C=C1C(=O)OC2/C=C(\C)C3OC3/C=C(/C(=O)OC)C(O)C(OC(=O)C3(C)OC3C)C12 (stereo not given): 1.53 µM (inactive)
Nc1ccccc1SC(C[N+](=O)[O-])c1ccc2c(c1)OCO2 (stereo not given): 1.81 µM (inactive)

Notebook: O=C1c2ccc3ccccc3c2CCC1N1CCCCC1 (stereo not given) , GI50 read as 20.7 µM (inactive)

Notebook: CC1=C(C(=O)OCCc2ccc([N+](=O)[O-])cc2)C(c2ccccc2[N+](=O)[O-])C(C(=O)OC(C)C)=C(C)N1 (stereo not given) , GI50 read as 4.04 µM (inactive)

----------
GI50: recorded values
- System: NCI-H522
- experiment.summary: NCI tumour cell line growth inhibition, 48 h
Active and inactive are the calls of the source. No stated cut-off is given here; in the data, active = GI50 up to about 1.1 µM and inactive = higher.

O=C1Nc2ccccc2/C1=N/Nc1ccc([N+](=O)[O-])cc1[N+](=O)[O-]: 12.9 µM (inactive)

Notebook: "COc1c(C)c(C/C=C(\C)CC/C=C(\C)CC/C=C(\C)CC/C=C(\C)CCC=C(C)C)c(OC)c(OC)c1OC" , GI50 read as 16 µM (inactive)

Notebook: O=C(O)C1CCC(=O)N1C(=O)COc1cc(Cl)c(Cl)cc1Cl (stereo unspecified) , GI50 read as > 100 µM (inactive)

Notebook: O=C(CC(=O)N1N=C(n2ccc3ccccc32)CC1c1ccccc1)Nc1ccc(Cl)cc1 (stereo unspecified) , GI50 read as > 100 µM (inactive)

Notebook: "COc1ccc2c(c1)CC1=C(O2)c2ccc(OC)cc2OC1" , GI50 read as 17 µM (inactive)

Notebook: "COc1cc(CNc2ccc(C)cc2)cc(OC)c1OC" , GI50 read as 0.255 µM (active)

Notebook: CCOC(=O)C(OP(=O)(OCC)OCC)C(F)(F)F (stereo unspecified) , GI50 read as > 100 µM (inactive)

Notebook: "CCCCCCCCCCCCOC(=N)N1CCOCC1" , GI50 read as 14.6 µM (inactive)

Notebook: CC1CCC23COC(=O)C2C(O)CCC3C1(C)CC(O)c1ccoc1 (stereo unspecified) , GI50 read as > 100 µM (inactive)

Notebook: "CCCC(=O)OC(OC(=O)CCC)c1ccc([N+](=O)[O-])o1" , GI50 read as 13.4 µM (inactive)

Notebook: "Oc1ccc(Nc2nc(Cl)c3nc[nH]c3n2)cc1" , GI50 read as > 100 µM (inactive)

----------
- System: IGROV-1
- experiment.summary: NCI tumour cell line growth inhibition, 48 h
Activity calls are given as the source filed them. Cut-off read from the data, not from the text of the source: active = GI50 up to about 1.1 µM and inactive = higher.
GI50: recorded values

Cc1ccc(S(=O)(=O)NC(=O)NC(CO)C(=O)O)cc1 (centres undefined): > 100 µM (inactive)
CCOC(CN(C)C(=O)Nc1cccc2ccccc12)OCC: > 10 µM (inactive)
COc1cc2c3c(c4cc(OC)c(OC)cc4c2cc1OC)[C@H](O)[C@@H]1CCCN1C3: < 0.0275 µM (active)

Notebook: "COc1cc(/N=N\c2ccc(OC)c(S(=O)(=O)O)c2)c(C)cc1/N=N\c1ccc(/C=C/c2ccc(/N=[N+](/[O-])c3ccc(/C=C/c4ccc(/N=N/c5cc(C)c(/N=N\c6ccc(OC)c(S(=O)(=O)O)c6)cc5OC)cc4S(=O)(=O)O)c(S(=O)(=O)O)c3)cc2S(=O)(=O)O)c(S(=O)(=O)O)c1" , GI50 read as > 100 µM (inactive)

----------
- Test system: HCT-116
- experiment.summary: NCI tumour cell line growth inhibition, 48 h
Active and inactive are the calls of the source. No stated cut-off is given here; in the data, active = GI50 up to about 1.1 µM and inactive = higher.
metric.name: GI50

FC(F)(F)c1cccnc1Sc1nc2ccccc2s1: > 100 µM (inactive)
O=[N+]([O-])c1cc(Cl)ccc1S(=O)(=O)N1CCCc2cc(Cl)ccc21: 28.6 µM (inactive)
O=c1c2ccccc2nc(-c2ccccc2)n1NC(=S)Nc1ccc(Cl)cc1[N+](=O)[O-]: 54.2 µM (inactive)
CC1(C)C(c2ccccc2)=[N+]([O-])C(C)(C)N1O: > 10 µM (inactive)
CCCCCCCCCCCCc1ccsc1-c1ccc(-c2ccc(-c3sccc3CCCCCCCCCCCC)s2)s1: > 100 µM (inactive)
Nc1ccc(C(=O)N/C(=C\C=C\c2ccco2)c2nc3c4c(ccc3[nH]2)C(=O)c2ccccc2C4=O)cc1: 24.8 µM (inactive)
CCCCC1CC(c2ccc(Cl)cc2)=NO1 (stereo not drawn): > 100 µM (inactive)
COc1ccc2c(c1)CC1=C(O2)c2ccc(OC)cc2OC1: 18.3 µM (inactive)
Cc1cc(C)nc(NS(=O)(=O)c2ccc(NC(=O)c3cc([N+](=O)[O-])cc([N+](=O)[O-])c3)cc2)n1: > 100 µM (inactive)
CCCC(=O)N(C(=O)CCC)C1=C(Cl)C(=O)c2ccccc2C1=O: 2.72 µM (inactive)

Lab note: molecule "O=C1C(O)=C(CCCc2ccc(Oc3ccccc3)cc2)C(=O)c2ccccc21" tested on HCT-116; recorded GI50 was 3.7 µM (inactive)

Lab note: molecule O=C(NC(Cc1ccc(I)cc1)C(=O)O)c1ccc(Br)cc1 (stereo not drawn) tested on HCT-116; recorded GI50 was > 100 µM (inactive)

Lab note: molecule CC1CCCC(C(=O)/C(=C/c2cccc(Cl)c2)C(=O)C(=O)O)C1 (stereo not drawn) tested on HCT-116; recorded GI50 was 13.8 µM (inactive)

Lab note: molecule "Cc1ccccc1Nc1nc2ccccc2nc1NS(=O)(=O)c1ccccc1" tested on HCT-116; recorded GI50 was > 100 µM (inactive)

Lab note: molecule "CCc1nc(N)nc(N)c1-c1ccc(N2CCOCC2)c(N=[N+]=[N-])c1" tested on HCT-116; recorded GI50 was 18.4 µM (inactive)

----------
- Test system: SK-MEL-5
- experiment.summary: NCI tumour cell line growth inhibition, 48 h
The source made the active and inactive calls. No stated cut-off is given here; in the data, active = GI50 up to about 1.1 µM and inactive = higher.
GI50: recorded values

Some solved cases for reference:
Cc1ccc(NC(=O)CC2SC(Nc3cccc(Cl)c3C)=NC2=O)cc1 (configuration not stated): 29.6 µM (inactive)
O=c1c2ccccc2nc(-c2ccccc2)n1NC1OC(CO)C(O)C(O)C1O (configuration not stated): > 100 µM (inactive)
COCOc1ccc(C2(O)Oc3cc(OCOC)ccc3C2C)c(O)c1 (configuration not stated): 11 µM (inactive)
CC1(C)C(=O)N=C(N)N1C(=O)OCc1ccccc1: > 100 µM (inactive)
N#CC1=CNc2sccc2S1(=O)=O: 76.4 µM (inactive)
COc1cc(C2c3cc4c(cc3[C@@H](Nc3ccc([N+](=O)[O-])cc3)C3COC(=O)[C@H]23)OCO4)cc(OC)c1O (some centres not stated): 0.586 µM (active)

Kindly review the next molecule as well.
Notebook: "N#Cc1c(-c2ccccc2)c(C#N)c(=O)n(NS(=O)(=O)c2ccccc2)c1O" , GI50 read as > 100 µM (inactive)
